FYI, the data here is from patent US4698344A.

Please provide measured Action on cyclooxygenase (CO): Effect for the entries that follow.
- Tested target: cyclooxygenase (Rattus norvegicus, UniProt Q63921)
- Construct: homogenates of RBL-1 cells; endogenous in cells; host or cells: RBL-1 (rat basophilic leukaemia) cells, homogenate
- Assay details: Cyclooxygenase activity in homogenates of RBL-1 cells
- Format: biochemical
- Measurement context: concentration 0.5-1 μg/ml; negative = inhibition
# number only, unit % dropped from output

Lookup: Entry COc1ccc(-c2c[nH]n(-c3ncccn3)c2=O)cc1 has what Action on cyclooxygenase (CO): Effect?
Found: -11

Lookup: Try this compound too: Cc1ccccc1-c1c[nH]n(-c2ccccn2)c1=O
Found: -2

Lookup: Another compound to look at: COc1ccccc1-c1c[nH]n(-c2ccc(Cl)cn2)c1=O
Found: -17

Lookup: Another compound to look at: O=c1c(-c2ccc(Cl)c(Cl)c2)c[nH]n1-c1ccccn1
Found: -19

---

- Tested target: lipoxygenase (Rattus norvegicus)
- Construct: homogenates of RBL-1 cells; endogenous in cells; host or cells: RBL-1 (rat basophilic leukaemia) cells, homogenate
- Sequence (P12527 whole entry): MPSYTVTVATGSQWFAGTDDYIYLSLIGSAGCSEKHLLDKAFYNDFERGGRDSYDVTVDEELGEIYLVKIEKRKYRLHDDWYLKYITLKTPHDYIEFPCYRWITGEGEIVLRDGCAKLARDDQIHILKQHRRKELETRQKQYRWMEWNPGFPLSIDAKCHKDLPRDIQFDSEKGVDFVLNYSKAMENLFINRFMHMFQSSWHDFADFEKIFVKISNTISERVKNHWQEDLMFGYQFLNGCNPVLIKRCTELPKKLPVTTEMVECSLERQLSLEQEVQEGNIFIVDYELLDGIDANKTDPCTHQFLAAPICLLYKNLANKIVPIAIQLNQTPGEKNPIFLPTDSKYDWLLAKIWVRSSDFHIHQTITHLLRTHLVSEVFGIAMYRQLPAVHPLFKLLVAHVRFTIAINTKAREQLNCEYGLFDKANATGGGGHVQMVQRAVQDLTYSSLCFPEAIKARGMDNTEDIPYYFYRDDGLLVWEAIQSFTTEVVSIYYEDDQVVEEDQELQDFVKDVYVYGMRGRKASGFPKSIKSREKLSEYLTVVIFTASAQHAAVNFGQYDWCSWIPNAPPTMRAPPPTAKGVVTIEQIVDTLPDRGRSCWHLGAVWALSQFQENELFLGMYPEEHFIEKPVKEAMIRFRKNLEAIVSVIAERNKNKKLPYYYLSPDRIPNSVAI
- Assay details: Lipoxygenase activity in homogenates of RBL-1 cells
- Type: biochemical
- Measurement context: concentration 0.5-1 μg/ml; negative = inhibition
Endpoint: Action on lipoxygenase (LO): Effect

Lookup: Record request: Action on lipoxygenase (LO): Effect value, item Cc1ccccc1-c1c[nH]n(-c2ccccn2)c1=O
Found: -34%

Lookup: Would you kindly repeat that for COc1ccccc1-c1c[nH]n(-c2ccc(Cl)cn2)c1=O ?
Found: -66%

Lookup: Request: O=c1c(-c2ccccc2F)c[nH]n1-c1ncccn1
Found: -46%

Lookup: Continue with O=c1c(-c2ccccc2)c[nH]n1-c1ncccn1
Found: -42%

Lookup: Then what about the compound O=c1c(-c2ccccc2F)c[nH]n1-c1ccccn1 ?
Found: -73%

Lookup: Likewise for O=c1c(-c2ccc(Cl)c(Cl)c2)c[nH]n1-c1ccccn1 ?
Found: -76%

Lookup: What do you get for COc1ccc(-c2c[nH]n(-c3ncccn3)c2=O)cc1 ?
Found: -71%

Lookup: Same lookup for O=c1c(-c2ccc(C(F)(F)F)cc2)c[nH]n1-c1ccccn1 , please.
Found: -58%

Lookup: Cool, now O=c1c(-c2ccccc2)c[nH]n1-c1ccccn1
Found: -66%

---

- Tested target: cyclooxygenase (Rattus norvegicus)
- Construct: homogenates of RBL-1 cells; endogenous in cells; host or cells: RBL-1 (rat basophilic leukaemia) cells, homogenate
- Sequence (Q63921 27-602): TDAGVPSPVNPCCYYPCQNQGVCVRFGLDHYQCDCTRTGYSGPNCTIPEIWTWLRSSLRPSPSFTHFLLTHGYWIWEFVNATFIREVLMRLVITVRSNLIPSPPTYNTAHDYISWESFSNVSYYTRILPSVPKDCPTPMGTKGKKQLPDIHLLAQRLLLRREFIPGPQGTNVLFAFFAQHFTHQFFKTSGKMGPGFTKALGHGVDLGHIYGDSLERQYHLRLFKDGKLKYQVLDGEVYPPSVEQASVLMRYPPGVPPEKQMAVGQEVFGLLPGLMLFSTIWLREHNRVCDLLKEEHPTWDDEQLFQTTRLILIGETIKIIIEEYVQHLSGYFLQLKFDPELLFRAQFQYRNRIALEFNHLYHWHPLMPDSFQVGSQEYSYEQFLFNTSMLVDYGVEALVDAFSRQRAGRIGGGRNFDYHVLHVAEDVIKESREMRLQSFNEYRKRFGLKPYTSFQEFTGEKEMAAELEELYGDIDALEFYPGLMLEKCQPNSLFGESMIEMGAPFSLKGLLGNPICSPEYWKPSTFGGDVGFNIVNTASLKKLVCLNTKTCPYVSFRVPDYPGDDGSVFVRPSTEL
- Assay details: Cyclooxygenase activity in homogenates of RBL-1 cells
- Type: biochemical
- Measurement context: concentration 0.5-1 μg/ml; negative = inhibition
Give Action on cyclooxygenase (CO): Effect for every item shown.

Lookup: Entry O=c1c(-c2ccccc2)c[nH]n1-c1ccccn1 has what Action on cyclooxygenase (CO): Effect?
Found: +28%

Lookup: Subsequent entry: O=c1c(-c2ccccc2F)c[nH]n1-c1ncccn1
Found: +23%

Lookup: Try O=c1c(-c2ccc(C(F)(F)F)cc2)c[nH]n1-c1ccccn1 next.
Found: +5%

Lookup: Follow-up item: O=c1c(-c2ccccc2F)c[nH]n1-c1ccccn1
Found: +3%
